pIC50 listing for selected compounds.
Biological target: BACE2 (Rattus norvegicus)
Construct: endogenous cellular BACE2 in the Ins1e rat cell line; endogenous in cells
Sequence (Q6IE75 63-514): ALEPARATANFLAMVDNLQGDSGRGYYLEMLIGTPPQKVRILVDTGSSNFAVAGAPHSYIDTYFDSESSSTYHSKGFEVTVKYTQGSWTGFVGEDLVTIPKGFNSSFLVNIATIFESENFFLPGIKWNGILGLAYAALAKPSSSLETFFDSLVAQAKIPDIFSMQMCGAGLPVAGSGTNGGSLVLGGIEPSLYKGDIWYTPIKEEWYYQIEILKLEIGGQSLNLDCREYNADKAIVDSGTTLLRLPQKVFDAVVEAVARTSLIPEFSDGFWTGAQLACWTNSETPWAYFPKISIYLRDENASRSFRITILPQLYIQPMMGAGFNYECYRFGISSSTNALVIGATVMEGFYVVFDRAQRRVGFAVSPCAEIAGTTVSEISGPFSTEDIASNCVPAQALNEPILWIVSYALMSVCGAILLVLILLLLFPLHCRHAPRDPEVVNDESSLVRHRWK
Assay: Assay for BACE inhibition by measuring cellular TMEM27 cleavage
Conditions: INS-TMEM27 cells (INS1e-derived), shed human TMEM27 by ELISA; read-out: BACE2 cell act. IC50
pIC50: −log10 of the molar value.
Measured quantity: pIC50

NC1=N[C@@]2(CCSc3ccc(NC(=O)c4ccc(Cl)cn4)cc32)C(F)(F)CO1    6.36
NC1=N[C@@]2(CCOc3ccc(NC(=O)c4ncc(Cl)cc4Cl)cc32)C(F)(F)COC1    5.23
N#Cc1ccc(C(=O)Nc2ccc3c(c2)[C@@]2(CCO3)N=C(N)OCC2(F)F)nc1    5.72
N#Cc1cncc(-c2ccc3c(c2)[C@@]2(CCC3)N=C(N)OCC2(F)F)c1    6.28
NC1=N[C@@]2(CCOc3ccc(-c4cc(Cl)cc(Cl)c4)cc32)C(F)(F)CO1    5.40
COc1cncc(-c2ccc3c(c2)[C@@]2(CCO3)N=C(N)OCC2(F)F)c1    6.03
NC1=N[C@@]2(CCOc3ccc(-c4cc(Cl)cc(Cl)c4)cc32)C(F)(F)COC1    4.98
NC1=N[C@@]2(CCc3ccc(-c4cncc(Cl)c4)cc32)C(F)(F)CO1    5.45
NC1=N[C@@]2(CCOc3ccc(-c4cncc(Cl)c4)cc32)C(F)(F)CO1    6.91
NC1=N[C@@]2(CCCc3ccc(-c4cncc(Cl)c4)cc32)C(F)(F)CO1    6.27
N#Cc1ccc(C(=O)Nc2ccc3c(c2)[C@@]2(CCS3)N=C(N)OCC2(F)F)nc1    6.83
N#Cc1ccc(C(=O)Nc2ccc3c(c2)[C@@]2(CCC3)N=C(N)OCC2(F)F)nc1    6.94

====

Target: BACE1 (Homo sapiens, UniProt P56817)
Construct: Human HEK293 cells which are stably transfected with a vector expressing a cDNA of the human APP wt gene (APP695); endogenous in cells; host or cells: HEK293 cells stably transfected with human APP695 (wt)
Sequence (P56817 46-501): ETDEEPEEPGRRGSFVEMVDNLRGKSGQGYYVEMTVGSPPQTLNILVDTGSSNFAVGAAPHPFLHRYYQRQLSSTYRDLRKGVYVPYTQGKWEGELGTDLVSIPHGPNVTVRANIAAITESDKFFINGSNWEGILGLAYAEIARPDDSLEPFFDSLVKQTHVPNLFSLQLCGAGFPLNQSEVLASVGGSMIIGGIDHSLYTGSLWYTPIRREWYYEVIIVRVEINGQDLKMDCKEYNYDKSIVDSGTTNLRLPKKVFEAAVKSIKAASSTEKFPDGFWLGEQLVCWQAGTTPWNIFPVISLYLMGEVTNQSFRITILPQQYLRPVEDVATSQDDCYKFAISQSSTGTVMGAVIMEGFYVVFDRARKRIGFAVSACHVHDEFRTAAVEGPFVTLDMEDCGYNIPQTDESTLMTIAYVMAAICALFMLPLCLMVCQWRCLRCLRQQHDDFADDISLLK
Assay: Cellular Aβ-lowering assay a) (Aβ40 ELISA)
Format: cell-based
Conditions: cellular assay a): HEK293 cells expressing human APP695, Aβ40 in supernatant by ELISA after 18-20 hrs; read-out: BACE1 cell act. Aβ40 IC50
pIC50: −log10 of the molar value.
Tick y if pIC50 is 6 or greater. Tick n if pIC50 is less than 6.

NC1=N[C@@]2(CCOc3ccc(NC(=O)c4ncc(Cl)cc4Cl)cc32)C(F)(F)COC1    n
NC1=N[C@@]2(CC(c3ccccc3)Oc3ccc(-c4cc(Cl)cc(Cl)c4)cc32)C(F)(F)CO1 (mixture of isomers)    n
NC1=N[C@@]2(CCc3ccc(-c4cc(Cl)cc(Cl)c4)cc32)C(F)(F)CO1    n
N#Cc1cncc(-c2ccc3c(c2)[C@@]2(CCC3)N=C(N)OCC2(F)F)c1    y
NC1=N[C@@]2(CCOc3ccc(-c4cncnc4)cc32)C(F)(F)CO1    n
N#Cc1ccc(C(=O)Nc2ccc3c(c2)[C@@]2(CC3)N=C(N)OCC2(F)F)nc1    y
NC1=N[C@@]2(CC(c3ccccc3)Oc3ccc(-c4cncc(Cl)c4)cc32)C(F)(F)CO1 (mixture of isomers)    y
N#Cc1ccc(C(=O)Nc2ccc3c(c2)[C@@]2(CC(c4ccccc4)O3)N=C(N)OCC2(F)F)nc1 (single isomer, unassigned)    y
NC1=N[C@@]2(CCc3ccc(-c4cncnc4)cc32)C(F)(F)CO1    n
N#Cc1cncc(-c2ccc3c(c2)[C@@]2(CCC3(F)F)N=C(N)OCC2(F)F)c1    n
N#Cc1ccc(C(=O)Nc2ccc3c(c2)[C@@]2(CCC3)N=C(N)COCC2(F)F)nc1    y
CC1(C)C[C@@]2(N=C(N)OCC2(F)F)c2cc(NC(=O)c3ccc(C#N)cn3)ccc2O1    y

====

Target: BACE1 (Homo sapiens, UniProt P56817)
Construct: Human HEK293 cells which are stably transfected with a vector expressing a cDNA of the human APP wt gene (APP695); endogenous in cells; host or cells: HEK293 cells stably transfected with human APP695 (wt)
Assay: Cellular Aβ-lowering assay a) (Aβ40 ELISA)
Format: cell-based
Conditions: cellular assay a): HEK293 cells expressing human APP695, Aβ40 in supernatant by ELISA after 18-20 hrs; read-out: BACE1 cell act. Aβ40 IC50
Measured quantity: log10 of IC50 (log10 of the value in µM)

NC1=N[C@@]2(CC(c3ccccc3)Oc3ccc(NC(=O)c4ccc(Cl)cn4)cc32)C(F)(F)CO1 (single isomer, unassigned)    -0.71
NC1=N[C@@]2(CCCc3ccc(NC(=O)c4ccc(Cl)cn4)cc32)C(F)(F)COC1    -0.35
CC1(C)C[C@@]2(N=C(N)OCC2(F)F)c2cc(NC(=O)c3ccc(Cl)cn3)ccc2O1    0.35
CC1(C)C[C@@]2(N=C(N)OCC2(F)F)c2cc(-c3cncc(Cl)c3)ccc2O1    0.40
NC1=N[C@@]2(CCOc3ccc(-c4cc(Cl)cc(Cl)c4)cc32)C(F)(F)COC1    0.58
COc1cncc(-c2ccc3c(c2)[C@@]2(CCO3)N=C(N)OCC2(F)F)c1    0.44
N#Cc1cccc(-c2ccc3c(c2)[C@@]2(CC(c4ccccc4)O3)N=C(N)OCC2(F)F)c1 (some centres unmarked)    -0.59
N#Cc1ccc(C(=O)Nc2ccc3c(c2)[C@@]2(CC(c4ccccc4)O3)N=C(N)COCC2(F)F)nc1 (mixture of isomers)    -0.33

====

Target: BACE1 (Homo sapiens, UniProt P56817)
Construct: Human HEK293 cells which are stably transfected with a vector expressing a cDNA of the human APP wt gene (APP695); endogenous in cells; host or cells: HEK293 cells stably transfected with human APP695 (wt)
Assay: Cellular Aβ-lowering assay a) (Aβ40 ELISA)
Assay type: cell-based
Settings: cellular assay a): HEK293 cells expressing human APP695, Aβ40 in supernatant by ELISA after 18-20 hrs; read-out: BACE1 cell act. Aβ40 IC50
pIC50: −log10 of the molar value.
pIC50 listing for selected compounds.
Measured quantity: pIC50

NC1=N[C@@]2(CCOc3ccc(-c4cncc(Cl)c4)cc32)C(F)(F)COC1    5.94
NC1=N[C@@]2(CCc3ccc(NC(=O)c4ccc(Cl)cn4)cc32)C(F)(F)CO1    5.60
NC1=N[C@@]2(CCOc3ccc(-c4cc(Cl)cc(Cl)c4)cc32)C(F)(F)CO1    5.69
N#Cc1ccc(C(=O)Nc2ccc3c(c2)[C@@]2(CCS3)N=C(N)OCC2(F)F)nc1    8.00
NC1=N[C@@]2(CCc3ccc(-c4ccnc(Cl)c4)cc32)C(F)(F)CO1    5.87
NC1=N[C@@]2(CCCc3ccc(NC(=O)c4ccc(Cl)cn4)cc32)C(F)(F)CO1    7.66
N#Cc1ccc(C(=O)Nc2ccc3c(c2)[C@@]2(CCS3(=O)=O)N=C(N)OCC2(F)F)nc1    5.47
NC1=N[C@@]2(CCSc3ccc(-c4cncc(Cl)c4)cc32)C(F)(F)CO1    6.17
NC1=N[C@@]2(CCC(F)(F)c3ccc(-c4cncc(Cl)c4)cc32)C(F)(F)CO1    5.59
N#Cc1cncc(-c2ccc3c(c2)[C@@]2(CC(c4ccccc4)O3)N=C(N)COCC2(F)F)c1 (mixture of isomers)    6.47
NC1=N[C@@]2(CCC(F)(F)c3ccc(-c4cncc(F)c4)cc32)C(F)(F)CO1    5.24
NC1=N[C@@]2(CC(c3ccccc3)Oc3ccc(NC(=O)c4ccc(C(F)(F)F)cn4)cc32)C(F)(F)COC1 (mixture of isomers)    5.47

====

Molecular target: BACE1 (Homo sapiens)
Construct: Human HEK293 cells which are stably transfected with a vector expressing a cDNA of the human APP wt gene (APP695); endogenous in cells; host or cells: HEK293 cells stably transfected with human APP695 (wt)
Assay: Cellular Aβ-lowering assay a) (Aβ40 ELISA)
Assay type: cell-based
Conditions: cellular assay a): HEK293 cells expressing human APP695, Aβ40 in supernatant by ELISA after 18-20 hrs; read-out: BACE1 cell act. Aβ40 IC50
Measured quantity: IC50 (µM)

NC1=N[C@@]2(CC(c3ccccc3)Oc3ccc(-c4cncnc4)cc32)C(F)(F)COC1 (mixture of isomers) [Example 58]    1.29
N#Cc1cccc(-c2ccc3c(c2)[C@@]2(CC3)N=C(N)OCC2(F)F)c1 [Example 10]    0.96
NC1=N[C@@]2(CCOc3ccc(NC(=O)c4[nH]ncc4Cl)cc32)C(F)(F)CO1 [Example 35]    1.25
NC1=N[C@@]2(CCc3ccc(-c4cncc(Cl)c4)cc32)C(F)(F)CO1 [Example 9]    0.79
